# experimentalDetails: Clearance in Wistar rat 2 mg/kg, iv
# Assay type: ADME, organism-based
# Parameters: dose 2 mg/kg, route intravenous
# conditionInfo: in vivo
assayMetric: clearance (mL/min/kg)
Report only the number, with the unit mL/min/kg understood.

Incoming: Name the recorded clearance for O=C(CCCN1CCCCC1)Nc1cc(-c2cncc(F)c2)n[nH]1 .
Outgoing: 23

----------
# assaySystem: Neuronal acetylcholine receptor subunit alpha-7 (Rattus norvegicus, UniProt Q05941)
# Sequence (Q05941 whole entry): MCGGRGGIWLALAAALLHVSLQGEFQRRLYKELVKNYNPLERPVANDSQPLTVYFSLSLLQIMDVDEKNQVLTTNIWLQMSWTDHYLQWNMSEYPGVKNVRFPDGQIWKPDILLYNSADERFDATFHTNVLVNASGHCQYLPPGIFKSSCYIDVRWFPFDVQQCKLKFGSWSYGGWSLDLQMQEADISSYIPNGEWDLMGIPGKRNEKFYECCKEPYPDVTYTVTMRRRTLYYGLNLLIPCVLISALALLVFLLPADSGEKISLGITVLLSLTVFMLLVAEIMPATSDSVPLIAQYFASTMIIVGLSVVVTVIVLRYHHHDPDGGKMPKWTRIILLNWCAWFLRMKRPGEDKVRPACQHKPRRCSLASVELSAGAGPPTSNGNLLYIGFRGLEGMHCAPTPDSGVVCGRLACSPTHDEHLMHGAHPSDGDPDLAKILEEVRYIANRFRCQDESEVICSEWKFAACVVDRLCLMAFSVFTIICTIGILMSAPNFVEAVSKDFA
# experimentalDetails: Displacement of [3H]-epibatidine from rat alpha7 nAchR expressed in rat GH4C1 cell membranes
assayMetric: Ki (nM)
Report only the number, with the unit nM understood.

Incoming: Name the recorded Ki for O=C(CCCN1CCCCC1)Nc1cc(-c2cncc(F)c2)n[nH]1 .
Outgoing: 390
